All values here come from ChEMBL document CHEMBL1150383.

Molecular target: Proteinase-activated receptor 1 (Rattus norvegicus)
Assay: Antagonist activity at PAR1 receptor assessed as reduction of PAR1AP-induced aortic ring contraction in Wistar rat at 10 to 100 uM after 15 mins
Format: functional
Activity calls are given as the source filed them. The rule behind the calls is not given here.
recordedMetric: Activity

In the examples that follow, each entry is paired with its recorded Activity.
{"columns": ["smilesString", "dataValue"],
 "data": [
  ["Cc1c(CN2CCCC2)c2cc(NC(=O)N[C@@H](Cc3cccc4ccccc34)C(=O)N[C@@H](CCCNC(=N)N)C(=O)NCc3ccccc3)ccc2n1Cc1c(Cl)cccc1Cl", "inactive"],
  ["Cc1c(CN2CCCC2)c2cc(NC(=O)N[C@@H](Cc3ccc(F)c(F)c3)C(=O)N[C@@H](CCCNC(=N)N)C(=O)NCc3ccccc3)ccc2n1Cc1c(Cl)cccc1Cl", "inactive"],
  ["Cc1c(CN2CCCC2)c2ccc(NC(=O)N[C@@H](Cc3ccc(F)c(F)c3)C(=O)N[C@@H](CCCNC(=N)N)C(=O)NCc3ccccc3)cc2n1Cc1c(Cl)cccc1Cl", "31 dyn/mg"],
  ["Cc1c(CN2CCCC2)c2ccc(NC(=O)N[C@@H](Cc3ccc4ccccc4c3)C(=O)N[C@@H](CCCNC(=N)N)C(=O)NCc3ccccc3)cc2n1Cc1c(Cl)cccc1Cl", "Active"],
  ["COc1ccc(C[C@H](NC(=O)Nc2ccc3c(CN4CCCC4)cn(Cc4c(Cl)cccc4Cl)c3c2)C(=O)N[C@@H](CCCNC(=N)N)C(=O)NCc2ccccc2)cc1", "94 dyn/mg"]
]}

Q: Could you share which Activity value was measured for "Cc1c(CN2CCCC2)c2cc(NC(=O)N[C@@H](Cc3ccc4ccccc4c3)C(=O)N[C@@H](CCCNC(=N)N)C(=O)NCc3ccccc3)ccc2n1Cc1c(Cl)cccc1Cl" ?
A: inactive

Q: Item: "COc1ccc(C[C@H](NC(=O)Nc2ccc3c(c2)c(CN2CCCC2)c(C)n3Cc2c(Cl)cccc2Cl)C(=O)N[C@@H](CCCNC(=N)N)C(=O)NCc2ccccc2)cc1"
A: inactive

Q: And the next one, "COc1ccc(C[C@H](NC(=O)Nc2ccc3c(CN4CCCC4)c(C)n(Cc4c(Cl)cccc4Cl)c3c2)C(=O)N[C@@H](CCCNC(=N)N)C(=O)NCc2ccccc2)cc1" ?
A: Active

----------
Biological target: Proteinase-activated receptor 1 (Homo sapiens)
Assay: Antagonist activity at PAR1 receptor assessed as inhibition of PAR1AP-induced platelet aggregation in human blood after 10 mins by chronolog dual channel aggregometry
Format: functional
recordedMetric: IC75 (µM)
// note: answer is a bare numeric in µM

Q: Which IC75 value is on record for "Cc1c(CN2CCCC2)c2ccc(NC(=O)N[C@@H](Cc3ccc(F)c(F)c3)C(=O)N[C@@H](CCCNC(=N)N)C(=O)NCc3ccccc3)cc2n1Cc1c(Cl)cccc1Cl" ?
A: 0.05

Q: Further, for "COc1ccc(C[C@H](NC(=O)Nc2ccc3c(CN4CCCC4)c(C)n(Cc4c(Cl)cccc4Cl)c3c2)C(=O)N[C@@H](CCCNC(=N)N)C(=O)NCc2ccccc2)cc1" ?
A: 0.02

Q: Note, next up: "Cc1c(CN2CCCC2)c2ccc(NC(=O)N[C@@H](Cc3ccc4ccccc4c3)C(=O)N[C@@H](CCCNC(=N)N)C(=O)NCc3ccccc3)cc2n1Cc1c(Cl)cccc1Cl"
A: 0.8

Q: Same lookup for "COc1ccc(C[C@H](NC(=O)Nc2ccc3c(CN4CCCC4)cn(Cc4c(Cl)cccc4Cl)c3c2)C(=O)N[C@@H](CCCNC(=N)N)C(=O)NCc2ccccc2)cc1" , please.
A: 0.1
